# Target Of Assay: T1, FZD8 cysteine-rich domain (CRD), MYC-tagged and GPI-anchored on CHO cells (human, UniProt Q498S8 31-155 (rat entry), GPI anchor)
# T1 construct: also called FZD8 CRD; CHO-myc-FZDGPI; not shown: MYC tag and GPI anchor signal
# T1 sequence: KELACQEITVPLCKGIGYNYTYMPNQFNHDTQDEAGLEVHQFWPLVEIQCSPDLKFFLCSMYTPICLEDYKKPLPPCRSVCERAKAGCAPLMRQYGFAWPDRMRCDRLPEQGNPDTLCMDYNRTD
# Assay Notes: flow cytometry, CHO-CRD cells;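 also: flow cytometry of Fab binding to CHO cells overexpressing a Frizzled CRD, with binding defined as median fluorescence over twice that of CHO cells lacking any Frizzled CRD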
Kindly state median fluorescence for each of the entries shown.
Give bare numbers.

Hi, could you look up median fluorescence for each item in my list?
1. Fab-2921 (Fab, V domains shown, Fab) VH: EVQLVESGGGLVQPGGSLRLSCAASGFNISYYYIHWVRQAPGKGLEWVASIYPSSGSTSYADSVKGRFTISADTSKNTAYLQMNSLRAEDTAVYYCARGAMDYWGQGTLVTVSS VL: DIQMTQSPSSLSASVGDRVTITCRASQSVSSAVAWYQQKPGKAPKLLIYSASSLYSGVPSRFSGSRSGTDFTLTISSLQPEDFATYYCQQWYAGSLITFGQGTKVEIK
2. Fab-2899 (Fab, V domains shown, Fab; also called Fv-2899) VH: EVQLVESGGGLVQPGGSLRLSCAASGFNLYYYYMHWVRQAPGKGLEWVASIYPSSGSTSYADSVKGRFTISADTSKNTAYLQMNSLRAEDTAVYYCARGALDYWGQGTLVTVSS VL: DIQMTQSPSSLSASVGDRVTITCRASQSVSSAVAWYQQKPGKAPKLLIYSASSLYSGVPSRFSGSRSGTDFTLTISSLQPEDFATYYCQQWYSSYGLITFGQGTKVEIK
3. Fab-2934 (Fab, V domains shown, Fab; also called Fv-2934) VH: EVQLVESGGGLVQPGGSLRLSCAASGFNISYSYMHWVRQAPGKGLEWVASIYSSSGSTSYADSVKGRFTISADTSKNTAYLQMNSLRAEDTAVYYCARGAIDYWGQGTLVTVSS VL: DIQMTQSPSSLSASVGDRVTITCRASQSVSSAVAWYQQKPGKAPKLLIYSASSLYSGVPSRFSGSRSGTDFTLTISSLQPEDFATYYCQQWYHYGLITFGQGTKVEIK
4. Fab-2924 (Fab, V domains shown, Fab; also called Fv-2924) VH: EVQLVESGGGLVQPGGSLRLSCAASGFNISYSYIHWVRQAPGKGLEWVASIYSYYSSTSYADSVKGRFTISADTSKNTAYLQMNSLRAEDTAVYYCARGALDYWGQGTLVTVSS VL: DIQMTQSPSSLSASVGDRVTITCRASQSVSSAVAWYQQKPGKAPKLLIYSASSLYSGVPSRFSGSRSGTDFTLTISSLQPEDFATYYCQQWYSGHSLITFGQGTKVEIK
5. Fab-2902 (Fab, V domains shown, Fab; also called Fv-2902) VH: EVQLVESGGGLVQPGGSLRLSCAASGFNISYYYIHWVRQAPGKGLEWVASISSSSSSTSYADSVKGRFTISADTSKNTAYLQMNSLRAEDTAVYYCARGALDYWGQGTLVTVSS VL: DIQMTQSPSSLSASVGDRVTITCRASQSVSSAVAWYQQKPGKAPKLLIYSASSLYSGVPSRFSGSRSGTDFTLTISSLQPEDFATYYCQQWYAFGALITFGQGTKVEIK

Solution:
6.98
12.8
29.4
12.1
13.9
